Hello, the source for this data is patent US20240408119A1, in case you need it.

- assay.remarks: Plasma Stability Assay (Example A3), human plasma
- Format: in vitro ADME
- condition.notes: prodrug remaining, 10 μM, 37° C., 30 min
List of Human Plasma Prodrug (%) values.

# compound, value.prefix, Human Plasma Prodrug (%)
records = [
    ("COc1ccc([C@@]23CCC(OP4(=O)OCCCO4)=C[C@@H]2N(C)CC3)cc1OC", "=", 73.1),
    ("COc1ccc([C@@]23CCC(OP(=O)(OC(C)C)OC(C)C)=C[C@@H]2N(C)CC3)cc1OC", ">", 99),
    ("COc1ccc([C@@]23CCC(OP4(=O)OCC(C)(C)CO4)=C[C@@H]2N(C)CC3)cc1OC", "=", 70.8),
    ("COc1ccc([C@@]23CCC(OP(=O)(O)OCOC(=O)C(C)(C)C)=C[C@@H]2N(C)CC3)cc1OC", "=", 95.2),
    ("COc1ccc([C@@]23CCC(OP(=O)(O)OCOC(=O)C(C)C)=C[C@@H]2N(C)CC3)cc1OC", "=", 82.6),
    ("COc1ccc([C@@]23CCC(OP4(=O)OC(C)CC(C)O4)=C[C@@H]2N(C)CC3)cc1OC (stereo partly shown)", ">", 99),
    ("COc1ccc([C@@]23CCC(OP(=O)(O)OCOC(=O)OC(C)C)=C[C@@H]2N(C)CC3)cc1OC", "=", 98.8),
]

----------
Measured Mouse Plasma Prodrug (%) values are reported for all entries that follow.
- Format: in vitro ADME, mouse
- condition.notes: prodrug remaining, 5 μM, 37° C., 30 min

# smiles.notation, unit.symbol, value.prefix, Mouse Plasma Prodrug (%)
rows = [
    ("COc1ccc([C@@]23CCC(OC(=O)N4CCN(C)CC4)=C[C@@H]2N(C)CC3)cc1OC", "%", ">", 99),
    ("COc1ccc([C@@]23CCC(OP(=O)(Oc4ccccc4)Oc4ccccc4)=C[C@@H]2N(C)CC3)cc1OC", "%", "=", 46.5),
    ("COc1ccc([C@@]23CCC(OP4(=O)OCC(C)(C)CO4)=C[C@@H]2N(C)CC3)cc1OC", "%", ">", 99),
    ("COc1ccc([C@@]23CCC(OC(=O)N(C)C)=C[C@@H]2N(C)CC3)cc1OC", "%", "=", 94.4),
]

----------
- Format: in vitro ADME, human
- condition.notes: prodrug remaining, 5 μM, 37° C., 240 min
readout.name: Human Plasma Prodrug (%)

# molecule, readout.name, meas.value
data = [
    ("COc1ccc([C@@]23CCC(OC(=O)OC(C)(C)C)=C[C@@H]2N(C)CC3)cc1OC [Compound 358]", "Human Plasma Prodrug (%)", 0.7),
    ("CCN(C)C(=O)OC1=C[C@@H]2N(C)CC[C@]2(c2ccc(OC)c(OC)c2)CC1 [Compound 326]", "Human Plasma Prodrug (%)", 93.9),
    ("COc1ccc([C@@]23CCC(OC(=O)N(C)C)=C[C@@H]2N(C)CC3)cc1OC [Compound 324]", "Human Plasma Prodrug (%)", 96.5),
    ("COc1ccc([C@@]23CCC(OP(=O)(OC(C)C)OC(C)C)=C[C@@H]2N(C)CC3)cc1OC [Compound 321]", "Human Plasma Prodrug (%)", 78.2),
    ("COc1ccc([C@@]23CCC(OP4(=O)OCC(C)(C)CO4)=C[C@@H]2N(C)CC3)cc1OC [Compound 323]", "Human Plasma Prodrug (%)", 1.60),
    ("COc1ccc([C@@]23CCC(OP(=O)(Oc4ccccc4)Oc4ccccc4)=C[C@@H]2N(C)CC3)cc1OC [Compound 320]", "Human Plasma Prodrug (%)", 95.3),
    ("COc1ccc([C@@]23CCC(OP(=O)(O)O)=C[C@@H]2N(C)CC3)cc1OC [Compound 359]", "Human Plasma Prodrug (%)", 25.6),
    ("COc1ccc([C@@]23CCC(OC(=O)N4CCN(C)CC4)=C[C@@H]2N(C)CC3)cc1OC [Compound 327]", "Human Plasma Prodrug (%)", 94.4),
]
